- target-desc: Human HER3, endogenous, on human cancer cell lines (SK-Br-3, MCF7, BT-474) (human, UniProt P21860 20-1342)
- Sequence (P21860 20-1342): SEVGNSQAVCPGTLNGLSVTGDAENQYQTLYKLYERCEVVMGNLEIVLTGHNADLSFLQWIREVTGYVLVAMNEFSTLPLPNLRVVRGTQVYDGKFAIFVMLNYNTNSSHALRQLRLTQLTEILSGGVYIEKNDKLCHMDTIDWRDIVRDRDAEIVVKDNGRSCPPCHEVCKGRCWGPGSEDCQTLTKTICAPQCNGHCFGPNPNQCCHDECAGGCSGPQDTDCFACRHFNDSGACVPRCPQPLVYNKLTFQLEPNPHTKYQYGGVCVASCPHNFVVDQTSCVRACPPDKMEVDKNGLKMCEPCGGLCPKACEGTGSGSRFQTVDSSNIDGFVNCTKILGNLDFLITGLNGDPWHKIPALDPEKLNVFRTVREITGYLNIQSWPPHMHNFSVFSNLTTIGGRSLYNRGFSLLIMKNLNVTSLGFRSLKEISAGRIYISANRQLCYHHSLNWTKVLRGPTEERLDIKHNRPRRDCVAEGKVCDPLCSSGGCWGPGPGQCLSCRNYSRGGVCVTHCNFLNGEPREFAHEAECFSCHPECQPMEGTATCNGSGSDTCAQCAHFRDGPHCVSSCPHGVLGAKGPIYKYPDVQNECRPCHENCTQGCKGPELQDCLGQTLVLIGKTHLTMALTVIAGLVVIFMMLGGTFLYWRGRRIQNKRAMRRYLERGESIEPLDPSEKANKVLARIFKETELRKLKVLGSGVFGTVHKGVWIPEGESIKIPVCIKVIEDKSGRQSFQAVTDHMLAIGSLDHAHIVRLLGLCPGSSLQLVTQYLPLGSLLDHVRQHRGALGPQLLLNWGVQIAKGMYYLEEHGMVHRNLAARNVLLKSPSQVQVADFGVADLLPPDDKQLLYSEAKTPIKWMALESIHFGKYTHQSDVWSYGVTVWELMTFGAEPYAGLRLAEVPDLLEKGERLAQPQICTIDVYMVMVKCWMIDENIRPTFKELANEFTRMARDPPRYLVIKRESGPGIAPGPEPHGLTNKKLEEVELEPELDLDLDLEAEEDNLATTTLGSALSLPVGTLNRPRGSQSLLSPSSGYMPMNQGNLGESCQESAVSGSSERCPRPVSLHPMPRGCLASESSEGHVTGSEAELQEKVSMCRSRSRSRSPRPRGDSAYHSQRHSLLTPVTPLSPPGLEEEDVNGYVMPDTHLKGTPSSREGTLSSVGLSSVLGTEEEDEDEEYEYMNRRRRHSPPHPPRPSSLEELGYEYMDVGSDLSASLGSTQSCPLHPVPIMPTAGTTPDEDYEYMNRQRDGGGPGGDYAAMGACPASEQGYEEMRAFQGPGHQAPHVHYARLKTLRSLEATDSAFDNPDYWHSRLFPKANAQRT
- assay-comment: cell-based or functional assay
test-readout: SK-Br-3 pAkt (S473) % inhibition (%)
Field: numeric (%). Do not append units.

Examples with their reported SK-Br-3 pAkt (S473) % inhibition follow.
MOR13755 (antibody, human IgG1, kappa, V domains shown, tested as IgG) VH: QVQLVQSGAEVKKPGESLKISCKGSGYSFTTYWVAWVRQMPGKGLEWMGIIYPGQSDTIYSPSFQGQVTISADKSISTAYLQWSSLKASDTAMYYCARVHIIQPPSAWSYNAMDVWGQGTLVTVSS VL: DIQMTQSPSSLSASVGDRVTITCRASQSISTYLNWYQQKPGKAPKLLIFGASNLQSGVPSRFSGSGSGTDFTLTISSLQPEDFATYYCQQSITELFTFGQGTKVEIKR :: 91
MOR13870 (antibody, human IgG1, kappa, V domains shown, tested as IgG) VH: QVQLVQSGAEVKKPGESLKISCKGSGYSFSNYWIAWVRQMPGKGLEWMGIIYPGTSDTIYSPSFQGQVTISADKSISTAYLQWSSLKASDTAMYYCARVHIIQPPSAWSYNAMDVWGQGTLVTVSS VL: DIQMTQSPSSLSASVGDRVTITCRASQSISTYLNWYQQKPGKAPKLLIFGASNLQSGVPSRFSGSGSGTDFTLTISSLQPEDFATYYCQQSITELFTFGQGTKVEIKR :: 91
MOR13869 (antibody, human IgG1, kappa, V domains shown, tested as IgG) VH: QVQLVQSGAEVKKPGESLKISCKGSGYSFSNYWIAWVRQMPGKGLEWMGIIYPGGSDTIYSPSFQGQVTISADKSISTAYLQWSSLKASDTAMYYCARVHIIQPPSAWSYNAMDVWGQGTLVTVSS VL: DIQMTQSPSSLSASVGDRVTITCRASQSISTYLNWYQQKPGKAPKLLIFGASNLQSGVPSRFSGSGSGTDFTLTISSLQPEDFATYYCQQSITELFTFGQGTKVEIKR :: 91
MOR13752 (antibody, human IgG1, kappa, V domains shown, tested as IgG) VH: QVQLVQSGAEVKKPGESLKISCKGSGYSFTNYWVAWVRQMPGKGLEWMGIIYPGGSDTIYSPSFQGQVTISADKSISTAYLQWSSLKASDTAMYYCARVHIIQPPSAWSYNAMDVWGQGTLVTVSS VL: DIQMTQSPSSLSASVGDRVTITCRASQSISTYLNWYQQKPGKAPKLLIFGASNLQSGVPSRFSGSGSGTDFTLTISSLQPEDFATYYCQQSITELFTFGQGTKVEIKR :: 86

Kindly review the next binder as well.
Recorded SK-Br-3 pAkt (S473) % inhibition of MOR13763 (antibody, human IgG1, kappa, V domains shown, tested as IgG) VH: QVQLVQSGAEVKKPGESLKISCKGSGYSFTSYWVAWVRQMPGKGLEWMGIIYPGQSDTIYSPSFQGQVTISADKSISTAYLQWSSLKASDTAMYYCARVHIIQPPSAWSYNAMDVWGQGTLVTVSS VL: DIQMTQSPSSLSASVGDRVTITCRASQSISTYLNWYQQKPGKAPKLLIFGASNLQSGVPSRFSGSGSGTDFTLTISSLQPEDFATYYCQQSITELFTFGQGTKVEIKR , please.
84
